Test system: HCT-116 colon
Test: NCI-60 one-dose screen, 48 h (100 = growth as untreated, 0 = no growth, -100 = all killed)
Conditions: 10 µM unless noted
About 83,000 compounds went through this panel and 20% of them were active in at least one assay; those are over-represented in the sample as a whole. Active and inactive are the calls of the source. How the source made its calls: active means growth percent below 10; inactive means the rest.

MOLECULE	growth
CC(C)(C)OC(=O)NC(CSCc1ccccc1)C(=O)ON1C(=O)CCC1=O (centres undefined)	92.5% (inactive)
CC(=O)Oc1csc(N(C(C)=O)c2cc(C(=O)O)cc(C(=O)O)c2)n1	91.3% (inactive)
O=[N+]([O-])c1cccc(-c2nc3sccn3c2-c2ccnc(NCCCNS(=O)(=O)c3ccc(C(F)(F)F)cc3)n2)c1	30.5% (inactive)
Cc1nc2c3c(ncn2n1)Oc1c(c(=O)[nH]c2ccccc12)C3c1ccc(Cl)cc1 (centres undefined)	88.8% (inactive)
